Target: T1, C-terminally FLAG-tagged human Gas6 recombinant protein (hGas6-F) (human, UniProt Q14393 31-678, gamma-carboxylated glutamic acid residues in the Gla domain (producer cells co-express rat VKOR and human GGCX); positions not given)
T1 construct: also called human Gas6-F; human Gas6 protein
T1 sequence: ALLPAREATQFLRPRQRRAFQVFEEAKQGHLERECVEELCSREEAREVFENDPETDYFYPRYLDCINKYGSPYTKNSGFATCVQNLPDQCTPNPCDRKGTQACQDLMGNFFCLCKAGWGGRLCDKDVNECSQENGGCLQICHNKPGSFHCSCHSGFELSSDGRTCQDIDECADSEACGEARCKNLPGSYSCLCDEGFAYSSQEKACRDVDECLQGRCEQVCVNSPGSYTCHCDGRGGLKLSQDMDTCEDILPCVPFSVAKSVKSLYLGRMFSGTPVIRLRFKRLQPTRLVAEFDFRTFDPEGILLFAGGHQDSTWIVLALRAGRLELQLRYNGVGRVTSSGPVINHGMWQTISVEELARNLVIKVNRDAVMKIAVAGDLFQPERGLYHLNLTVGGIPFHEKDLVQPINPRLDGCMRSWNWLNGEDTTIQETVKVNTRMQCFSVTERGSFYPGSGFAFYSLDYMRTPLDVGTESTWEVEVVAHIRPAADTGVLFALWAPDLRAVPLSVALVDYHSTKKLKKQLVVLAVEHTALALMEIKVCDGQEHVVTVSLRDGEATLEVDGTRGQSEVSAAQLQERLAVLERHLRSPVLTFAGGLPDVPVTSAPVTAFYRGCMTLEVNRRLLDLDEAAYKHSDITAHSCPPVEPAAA
Assay: SPR Biacore T100, captured antibody, Gas6 analyte, first test
test_readout: koff

The cases that follow already have their koff on record.
binder	koff
hzKM5320 LV5HV3c antibody (antibody, V domains shown, Humanized; variant human IgG4 constant region (EU S228P, L235E, R409K), human kappa; also called A-23) VH: QVQLVQSGPELKKPGASVKVSCKASGYTFTNYGMNWVKQAPGQGLKWMGWINTETGEPTYSDDFKGRFVFSLDTSVSTAYLQISSLKAEDTAVYYCAREDGYYGTLDYWGQGTTVTVSS VL: DIVMTQSPDSLAVSLGERVTINCKASQSVSNDVAWYQQKPGQSPKVLIYYASNRYTGVPDRFSGSGSGTDFTFTISSVQAEDVAVYFCQQDYSSPWTFGQGTKLEIK	0.00014 s⁻¹
hzKM5321 LV6HV1 antibody (antibody, V domains shown, Humanized; variant human IgG4 constant region (EU S228P, L235E, R409K), human kappa; also called B-22; LV6HV1) VH: QVHLVQSGSELKKPGASVKISCKASGYTFTNYGMNWVRQAPGQGLKWMGWINTNTGEPTYTEEFKGRFVFSLDTSVTTSYLQISTLKAEDTAVYFCARDEGWFVYWGQGTLVTVSS VL: ETTLTQSPSSLSVSTGDRVTITCITSTDIDDDMNWYQQKPGKPPKLLISEGNTLRPGVPSRFSSSGSGTDFTLTISSTQPEDFADYYCLQTDSVPLTFGQGTKVEIK	0.000239 s⁻¹

Bench note: what koff did hzKM5320 LV2aHV0 antibody (antibody, V domains shown, Humanized; variant human IgG4 constant region (EU S228P, L235E, R409K), human kappa; also called A-05) VH: QVQLVQSGSELKKPGASVKVSCKASGYTFTNYGMNWVRQAPGQGLEWMGWINTETGEPTYSDDFKGRFVFSLDTSVSTAYLQISSLKAEDTAVYYCAREDGYYGTLDYWGQGTTVTVSS VL: DVVMTQSPDSLAVSLGERVTINCKASQSVSNDVAWYQQKPGQSPKLLIYYASNRYTGVPDRFSGSGSGTDFTLTISSVQAEDVAVYFCQQDYSSPWTFGQGTKLEIK show?
0.00105 s⁻¹
